All figures here come from patent US20210017287A1.

Entries and their OD450
- system: T1, TNFRSF25-Fc fusion protein (UniProt Q93038 25-199, limits assumed, biotinylated in the capture ELISA (site not stated))
- T1 construct: also called TNFRSF25-Fc protein; biotinylated antigen protein; not shown: Fc part
- T1 sequence (looked up): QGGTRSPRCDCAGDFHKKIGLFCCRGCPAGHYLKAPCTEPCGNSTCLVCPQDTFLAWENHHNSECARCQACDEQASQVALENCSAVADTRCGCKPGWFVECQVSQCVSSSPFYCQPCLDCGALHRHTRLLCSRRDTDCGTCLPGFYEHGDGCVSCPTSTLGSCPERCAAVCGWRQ
- measurement.protocol: single point capture ELISA, scFv captured by anti-c-myc, biotinylated antigen
Report only the number, with the unit OD450 understood.

10C3 (scFv, V domains shown, scFv) VH: EVQLVESGGGLSQPGNSLQLSCEASGFTFSNHDLNWVRQAPGKGLEWVAYISSDSGLISYADAVRGRFTISRDNAKNSLFLQMNNLKSEDTAMYYCARDPPYSGLYALDFWGQGTQVTVSS VL: QPVLTQSPSASASLSGSVKLTCTLSSELSSYTIVWYQQRPDKAPKYVMYLKSDGSHSKGDGIPDRFSGSSSGAHRYLSISNVQSEDDATYFCGAGYTLAGQYGWVFGSGTKVTVL :: 0.7

Sample 43F11 (scFv, V domains shown) VH: EVQLVESGGGLSQPGNSLQLSCEASGFTFSNHDLNWVRQAPGKGLEWVAYISSASGLISYADAVRGRFTISRDNAKNSLFLQMNNLKSEDTAMYYCARDPPYSGLYALDFWGQGTQVTVSS VL: QPVLTQSPSASASLSGSVKLTCTLSSELSSFTIVWYQQRPDKAPKYVMYLKSDGSHSKGDGIPDRFSGSSSGAHRYLSISNVQSEDDATYFCGAGYTLAGQYGWVFGSGTKVTVL — what was its OD450?
1.6

GET /values?readout=OD450&item= 12F7 (scFv, V domains shown, scFv; Position 12 is a library position read from the clone ID) VH: EVQLVESGGGLSQPGNSLQLSCEASGFTFSNHDLNWVRQAPGKGLEWVAYISSASQLISYADAVRGRFTISRDNAKNSLFLQMNNLKSEDTAMYYCARDPPYSGLYALDFWGQGTQVTVSS VL: QPVLTQSPSASASLSGSVKLTCTLSSELSSYTIVWYQQRPDKAPKYVMYLKSDGSHSKGDGIPDRFSGSSSGAHRYLSISNVQSEDDATYFCGAGYTLAGQYGWVFGSGTKVTVL
0.85
